Attribution: patent US20100261620A1

Reported pKd values for the following binders.
- Test System: IL-13 (Homo sapiens (Human), UniProt P35225 35-146, limits assumed)
- Sequence (P35225 35-146 limits assumed): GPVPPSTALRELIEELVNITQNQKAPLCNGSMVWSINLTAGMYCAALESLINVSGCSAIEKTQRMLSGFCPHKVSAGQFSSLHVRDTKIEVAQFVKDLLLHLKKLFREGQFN
- Assay Notes: Biacore
The read-out pKd is expressed as -log10 of concentration in moles per litre.

# Binder, pKd
measured = [
    ("M452 (antibody, V domains shown, anti-IL-13, human IgG1) VH: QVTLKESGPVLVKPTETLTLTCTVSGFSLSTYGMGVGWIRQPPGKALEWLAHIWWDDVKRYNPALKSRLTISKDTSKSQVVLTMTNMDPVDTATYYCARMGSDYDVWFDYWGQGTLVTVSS VL: EIVLTQSPATLSLSPGERATLSCRASKSISKYLAWYQQKPGQAPRLLIYSGSTLQSGIPARFSGSGSGTDFTLTISSLEPEDFAVYYCQQHLNGPYTFGQGTKLEIK", 9.63),
]

Now for another entry.
Lookup: Find the recorded pKd belonging to M462 (antibody, V domains shown, anti-IL-13, human IgG1) VH: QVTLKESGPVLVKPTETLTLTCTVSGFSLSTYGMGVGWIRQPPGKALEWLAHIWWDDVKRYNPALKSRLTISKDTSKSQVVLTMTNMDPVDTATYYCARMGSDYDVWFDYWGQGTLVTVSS VL: EIVLTQSPATLSLSPGERATLSCRASKSISKYLAWYQQKPGQAPRLLIYSGSTLQSGIPARFSGSGSGTDFTLTISSLEPEDFAVYYCQQHNFGPYTFGQGTKLEIK and report it.
Found: 9.44
